Experiment: lipophilicity by isocratic RP-HPLC (log k, k, log kw, S)
Format: physicochemical
Settings: mobile phase MeOH/water 90:10 (v/v)
Please mark 1.0 if the recorded log k is equal to or greater than 0.4, and 0.0 if it falls below.

Query string: Reported log k reaches at least 0.4 for CCCCCCCOc1ccccc1NC(=O)OC(CN(CCC)CCC)CN1CCCC1.Cl.Cl (stereo not drawn) [1d] ?
Result string: 1.0

Query string: Reported log k reaches at least 0.4 for CCCCCCOc1ccccc1NC(=O)OC(CN(CCC)CCC)CN1CCCCCC1 (stereo not drawn) [1k] ?
Result string: 1.0

Query string: Reported log k reaches at least 0.4 for CCCCOc1cccc(NC(=O)OC(CN(CCC)CCC)CN2CCCCCC2)c1 (stereo not drawn) [1m] ?
Result string: 0.0

Query string: Reported log k reaches at least 0.4 for CCCCCCCOc1cccc(NC(=O)OC(CN(CCC)CCC)CN2CCCC2)c1.Cl.Cl (stereo not drawn) [1h] ?
Result string: 1.0

Query string: Reported log k reaches at least 0.4 for CCCCCCCOc1cccc(NC(=O)OC(CN(CCC)CCC)CN2CCCCCC2)c1.Cl.Cl (stereo not drawn) [1p] ?
Result string: 1.0

Query string: Reported log k reaches at least 0.4 for CCCCCCOc1ccccc1NC(=O)OC(CN(CCC)CCC)CN1CCCC1 (stereo not drawn) [1c] ?
Result string: 1.0

Query string: Reported log k reaches at least 0.4 for CCCCOc1cccc(NC(=O)OC(CN(CCC)CCC)CN2CCCC2)c1 (stereo not drawn) [1e] ?
Result string: 0.0

Query string: Reported log k reaches at least 0.4 for CCCCCOc1cccc(NC(=O)OC(CN(CCC)CCC)CN2CCCC2)c1.Cl.Cl (stereo not drawn) [1f] ?
Result string: 0.0

Ref: paper PMC6222509
